Entries and their Tonset
assay: Thermostability (Tm, Tonset, Tagg) by Nanotemper DSF
Assay type: physicochemical
Parameters: key: temperatures in °C
reported.conditions: Replicate 1

molecule	Tonset
SDAB22110-4-3-E05: anti-Fel d1 VHH clone, SEQ ID NO: 55 (protein) VHH: QVQLVESGGGLVQPGGSLRLSCVGSGFTFSQYAMRWYRQVPGKARELVAAISRSGDFMYYADSVKGRFTISRDNVKSAVILQMNSLKPEDTAVYYCYGQATISDTLWGQGTQVTVSS	35.61
SDAB22110-4-3-G08: anti-Fel d1 VHH clone, SEQ ID NO: 56 (protein) VHH: DVQLVESGGGLVQPGGSLRLSCAASGFTFSLYYMSWYRQVPGKERELVATITSGTHATTYADSVKGRFTISRDNAKNTVSLQMNSLKREDTGVYYCKRTNAGQDPWGQGTQVTVSS	27.93
DAB22110-1-1-C3 (protein) VHH: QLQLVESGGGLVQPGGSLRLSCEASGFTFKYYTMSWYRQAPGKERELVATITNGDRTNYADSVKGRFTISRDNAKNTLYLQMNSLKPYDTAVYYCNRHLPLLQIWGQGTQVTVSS	58.17
SDAB22110-1-1-B9-1: anti-Fel d1 VHH clone, SEQ ID NO: 50 (protein) VHH: DVQLVESGGGWVQPGGSLRLSCAASGFTFTSYALSWVRQAPGKGLEWVSLADARGTSTTYADSVKGRFTISKDNPRNTLYLLMNSLKPEDTAVYYCTKGFDGNWYPDYDYWGQGTQVTVSS	42.11
SDAB22110-1-1-E4: anti-Fel d1 VHH clone, SEQ ID NO: 51 (protein) VHH: QLQLVESGGGLVQPGGSLRLSCTASGFTFSTAGTSWYRQSPGKARKLVAELSRIGGIANYADSVKGRFTISRDNTRNTVYLQMNSLKPEDTAVYYCKVVTNRNYGFTYWGQGTQVTVSS	40.60
SDAB22110-3-1-D9-1: anti-Fel d1 VHH clone, SEQ ID NO: 52 (protein) VHH: AVQLVESGGGLVQPGGSLRLSCIISGFTSVSYSIVWFRQAPGKGREGVSCIGSSGGSTDYIDSVKGRFTISRDSAKNTVYLQMDCLKPEDTAVYYCAALRDVYRLCVIDYMNNDYWGQGTQVTVSS	32.57
